Assign melting point to each entry below.

State its melting point for this compound: CC(C)(C)c1cc(CN(c2cccnc2)S(=O)(=O)c2ccc([N+](=O)[O-])cc2)cc(C(C)(C)C)c1O 159 to 160 °C

State its melting point for this compound: CC(=O)Nc1ccc(S(=O)(=O)N(Cc2cc(C(C)(C)C)c(O)c(C(C)(C)C)c2)c2cccnc2)cc1 167 to 169 °C

State its melting point for this compound: COc1ccc(S(=O)(=O)N(Cc2cc(C(C)(C)C)c(O)c(C(C)(C)C)c2)c2cccnc2)cc1 142 to 143 °C

State its melting point for this compound: CC(C)(C)c1ccc(S(=O)(=O)N(Cc2cc(C(C)(C)C)c(O)c(C(C)(C)C)c2)c2cccnc2)cc1 155 to 156 °C

---

Target: apolipoprotein(a), [apo(a)], apolipoproteinB-100, [apoB-100], coupling reaction that generates Lp(a) (Homo sapiens, UniProt P04114+P08519)
Experiment: LPABC screen: lipoprotein(a) biochemical coupling assay, Lp(a) content by ELISA
Conditions: recombinant apo(a) 17-kringle (293 cell conditioned media) + HepG2 conditioned media, 67 minutes at 37° C., 0.3 to 50 μM compound
assay-metric: pIC50
Quick note: pIC50 means taking -log10 of the concentration in moles per liter.

State its pIC50 for this molecule: CC(C)(C)c1cc(CN(c2cccnc2)S(=O)(=O)c2ccc(-c3ccccn3)s2)cc(C(C)(C)C)c1O 5.78

State its pIC50 for this molecule: CC(=O)Nc1ccc(S(=O)(=O)N(Cc2cc(C(C)(C)C)c(O)c(C(C)(C)C)c2)c2cccnc2)cc1 5.46

State its pIC50 for this molecule: COc1ccc(N(Cc2cc(C(C)(C)C)c(O)c(C(C)(C)C)c2)S(=O)(=O)c2cccs2)cn1 5.50

State its pIC50 for this molecule: CC(C)(C)c1cc(CN(c2cccnc2)S(=O)(=O)c2ccc3ccccc3c2)cc(C(C)(C)C)c1O 5.15

State its pIC50 for this molecule: COc1ccc(N(Cc2cc(C(C)(C)C)c(O)c(C(C)(C)C)c2)S(=O)(=O)c2ccc(C)cc2)cn1 5.62

State its pIC50 for this molecule: CC(C)(C)c1cc(CN(c2cccnc2)S(=O)(=O)c2cccs2)cc(C(C)(C)C)c1O 5.46

State its pIC50 for this molecule: CC(C)(C)c1cc(CN(c2cccnc2)S(=O)(=O)c2ccccc2)cc(C(C)(C)C)c1O 5.39

State its pIC50 for this molecule: CC(C)(C)c1cc(CN(c2cccnc2)S(=O)(=O)c2ccc([N+](=O)[O-])cc2)cc(C(C)(C)C)c1O 5.59

State its pIC50 for this molecule: Cc1ccc(S(=O)(=O)N(Cc2cc(C(C)(C)C)c(O)c(C(C)(C)C)c2)c2cccnc2Cl)cc1 5.68

State its pIC50 for this molecule: CCOC(=O)C(c1cc(C(C)(C)C)c(O)c(C(C)(C)C)c1)N(CC1CCCCC1)S(C)(=O)=O (stereo not shown) 5.72

State its pIC50 for this molecule: CC(C)(C)c1ccc(S(=O)(=O)N(Cc2cc(C(C)(C)C)c(O)c(C(C)(C)C)c2)c2cccnc2)cc1 4.93

State its pIC50 for this molecule: COc1ccc(S(=O)(=O)N(Cc2cc(C(C)(C)C)c(O)c(C(C)(C)C)c2)c2cccnc2)cc1 5.43

State its pIC50 for this molecule: CC(C)(C)c1cc(CN(c2cccnc2)S(=O)(=O)c2cccc(Br)c2)cc(C(C)(C)C)c1O 5.56

State its pIC50 for this molecule: CC(C)(C)c1cc(CN(c2cccnc2)S(=O)(=O)c2ccc(F)cc2)cc(C(C)(C)C)c1O 5.59

State its pIC50 for this molecule: CC(C)(C)c1cc(CN(c2cccnc2)S(=O)(=O)c2ccccc2Br)cc(C(C)(C)C)c1O 5.61

State its pIC50 for this molecule: CC(C)(C)c1cc(CN(c2cccnc2)S(=O)(=O)c2cccc([N+](=O)[O-])c2)cc(C(C)(C)C)c1O 5.40

State its pIC50 for this molecule: Cc1ccc(S(=O)(=O)N(Cc2cc(C(C)(C)C)c(O)c(C(C)(C)C)c2)c2ccc(Cl)nc2)cc1 5.68

State its pIC50 for this molecule: CC(C)(C)c1cc(CN(c2cccnc2)S(C)(=O)=O)cc(C(C)(C)C)c1O 5.25

State its pIC50 for this molecule: Cc1ccc(S(=O)(=O)N(Cc2cc(C(C)(C)C)c(O)c(C(C)(C)C)c2)c2cccnc2)cc1 5.40
